Target: human RET on cells (MCF7/SRE-Luc; HEK293/hGFRα3/hRET/SRE-Luc; HEK293/hGFRα1/hRET/SRE-Luc) (human), P07949
Assay: cell-based or functional assay
Each entry below carries its reported MCF7/SRE-Luc Avg % Blocking.
MEASUREMENT LABEL: MCF7/SRE-Luc Avg % Blocking (%)

>  <BINDER>
H4H8084P (antibody, human IgG4, V domains shown) VH: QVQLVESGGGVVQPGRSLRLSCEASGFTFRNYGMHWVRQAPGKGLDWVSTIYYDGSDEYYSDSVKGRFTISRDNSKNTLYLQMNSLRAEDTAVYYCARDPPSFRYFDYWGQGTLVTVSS VL: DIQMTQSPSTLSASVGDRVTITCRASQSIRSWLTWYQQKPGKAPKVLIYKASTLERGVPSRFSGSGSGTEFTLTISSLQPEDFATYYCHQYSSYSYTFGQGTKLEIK

>  <MEASUREMENT LABEL>
MCF7/SRE-Luc Avg % Blocking

>  <EXPERIMENTAL RESULT>
100

$$$$
>  <BINDER>
H4H8083P (antibody, human IgG4, V domains shown) VH: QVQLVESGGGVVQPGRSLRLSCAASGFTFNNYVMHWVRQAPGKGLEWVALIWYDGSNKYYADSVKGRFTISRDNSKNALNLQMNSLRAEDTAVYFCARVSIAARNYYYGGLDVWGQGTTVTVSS VL: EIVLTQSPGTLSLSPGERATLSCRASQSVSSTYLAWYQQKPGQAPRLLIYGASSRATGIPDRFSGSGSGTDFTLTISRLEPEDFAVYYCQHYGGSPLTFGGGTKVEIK

>  <MEASUREMENT LABEL>
MCF7/SRE-Luc Avg % Blocking

>  <EXPERIMENTAL RESULT>
68

$$$$
>  <BINDER>
H4H8087P (antibody, human IgG4, V domains shown) VH: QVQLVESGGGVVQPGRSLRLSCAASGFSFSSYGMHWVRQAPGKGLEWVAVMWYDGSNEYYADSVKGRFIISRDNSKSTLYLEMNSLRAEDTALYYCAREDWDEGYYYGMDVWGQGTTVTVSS VL: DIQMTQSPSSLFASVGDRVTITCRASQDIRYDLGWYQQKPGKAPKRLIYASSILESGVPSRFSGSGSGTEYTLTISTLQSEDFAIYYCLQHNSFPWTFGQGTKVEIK

>  <MEASUREMENT LABEL>
MCF7/SRE-Luc Avg % Blocking

>  <EXPERIMENTAL RESULT>
100

$$$$
